biological target: Recombinant human Plk-1 (6×His) (Homo sapiens, UniProt P53350); construct: 6xHis; assay: PLK enzyme assay (33P-γ-ATP incorporation into biotin casein, SPA beads); conditions: 0.5 μM ATP, 0.7 μM casein, 90 minutes at room temperature, read-out: Inhibition PLK-1 IC50
Sequence (P53350 whole entry): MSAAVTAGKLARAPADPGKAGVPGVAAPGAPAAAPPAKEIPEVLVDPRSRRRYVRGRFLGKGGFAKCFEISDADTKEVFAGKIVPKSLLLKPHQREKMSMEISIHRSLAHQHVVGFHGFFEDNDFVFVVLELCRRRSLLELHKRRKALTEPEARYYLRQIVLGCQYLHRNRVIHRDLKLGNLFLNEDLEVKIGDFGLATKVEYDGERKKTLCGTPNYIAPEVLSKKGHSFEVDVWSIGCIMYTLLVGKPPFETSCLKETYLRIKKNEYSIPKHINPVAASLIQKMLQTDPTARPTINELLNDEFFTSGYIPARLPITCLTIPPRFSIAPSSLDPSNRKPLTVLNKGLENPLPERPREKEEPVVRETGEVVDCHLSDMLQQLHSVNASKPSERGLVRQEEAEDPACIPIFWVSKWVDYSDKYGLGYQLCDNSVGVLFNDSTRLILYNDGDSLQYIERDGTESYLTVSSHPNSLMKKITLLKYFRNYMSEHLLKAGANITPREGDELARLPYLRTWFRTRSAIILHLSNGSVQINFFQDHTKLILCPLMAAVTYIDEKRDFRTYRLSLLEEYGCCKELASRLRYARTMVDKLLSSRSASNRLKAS
pIC50: −log10 of the molar value.
readout: pIC50

Here are 2 molecules together with their reported answers.
| molecule | pIC50 |
| --- | --- |
| C#CCNC(=O)C(C#N)=c1sc(=CNc2ccc(F)c(NC(=O)C(C)(C)C)c2)c(=O)n1CC (mixture of isomers) | 7.00 |
| CCn1c(=C(C#N)C(=O)NCC(F)F)sc(=CNc2ccc(OCCN(C)C)cc2)c1=O [Comparison 310 from PCT/EP2004/ 012242, reference compound] | 7.13 |

A = CCn1c(=C(C#N)C(=O)NCC(F)(F)F)sc(=CNc2ccc(C(=O)NCCN3CCCC3)c(NC(=O)C(C)(C)C)c2)c1=O [Comparison 326 from PCT/EP2004/ 012242, reference compound]
B = CCn1c(=C(C#N)C(=O)NCC(F)(F)F)sc(=CNc2cccc(CCN3CCCC3)c2)c1=O (mixture of isomers)
C = C#CCNC(=O)C(C#N)=c1sc(=CNc2ccc(C(=O)NCCN3CCCC3)c(NC(=O)C(C)(C)C)c2)c(=O)n1CC [Comparison 323 from PCT/EP2004/ 012242, reference compound]
Lookup: Order the entries by their reported pIC50, beginning at the minimum. # format: label list in the order the request specifies
Found: C, A, B
